The measured values listed here are drawn from patent US5202315A.

Run description: In-vivo absorbency (plasma concentrations & pharmacokinetic parameters)
Design: species or system SD rat (male)
Conditions: plasma; 5 min; SD male rat, iv 20 mg/kg; read-out: Plasma Conc.
Reported property: concentration at 5 min

Consider CCc1c(N)nc(SCC2=C(C(=O)[O-])N3C(=O)C(NC(=O)/C(=N\OC(C)(C)C(=O)O)c4csc(N)n4)C3SC2)[n+](CC)c1N (centres unmarked) [Compound I-33] . Its measured concentration at 5 min is 55 µg/mL

Consider CC[n+]1c(N)cc(N)nc1SCC1=C(C(=O)[O-])N2C(=O)C(NC(=O)/C(=N\OC(C)(C)C(=O)O)c3csc(N)n3)C2SC1 (centres unmarked) [Compound I-2] . Its measured concentration at 5 min is 22 µg/mL

Consider Cc1c(N)nc(SCC2=C(C(=O)[O-])N3C(=O)C(NC(=O)/C(=N\OC(C)(C)C(=O)O)c4csc(N)n4)C3SC2)[n+](N)c1N (centres unmarked) [Compound I-34] . Its measured concentration at 5 min is 68 µg/mL

Consider CC(O/N=C(\C(=O)NC1C(=O)N2C(C(=O)[O-])=C(CSc3nc(N)cc(N)[n+]3C)CSC12)c1csc(N)n1)C(=O)O (centres unmarked) [Compound I-4] . Its measured concentration at 5 min is 32 µg/mL

Consider CC[n+]1c(SCC2=C(C(=O)[O-])N3C(=O)C(NC(=O)/C(=N\OC(C)(C)C(=O)O)c4csc(N)n4)C3SC2)nc(N)c(C)c1N (centres unmarked) [Compound I-32] . Its measured concentration at 5 min is 53 µg/mL

Consider CCO/N=C(\C(=O)NC1C(=O)N2C(C(=O)[O-])=C(CSc3nc(N)cc(N)[n+]3N)CSC12)c1csc(N)n1 (centres unmarked) [Compound I-16] . Its measured concentration at 5 min is 79 µg/mL

Consider CC(C)(O/N=C(\C(=O)NC1C(=O)N2C(C(=O)[O-])=C(CSc3nc(N)cc(N)[n+]3N)CS[C@H]12)c1csc(N)n1)C(=O)O (some centres unmarked) [Compound I-15] . Its measured concentration at 5 min is 71 µg/mL

Consider CCC[n+]1c(N)cc(N)nc1SCC1=C(C(=O)[O-])N2C(=O)C(NC(=O)/C(=N\OC(C)C(=O)O)c3csc(N)n3)C2SC1 (centres unmarked) [Compound I-45] . Its measured concentration at 5 min is 67 µg/mL

Consider C[n+]1c(N)cc(N)nc1SCC1=C(C(=O)[O-])N2C(=O)C(NC(=O)/C(=N\OCC(=O)O)c3csc(N)n3)C2SC1 (centres unmarked) [Compound I-7] . Its measured concentration at 5 min is 59 µg/mL

Consider CC[n+]1c(N)cc(N)nc1SCC1=C(C(=O)[O-])N2C(=O)C(NC(=O)/C(=N\OCC(=O)O)c3csc(N)n3)C2SC1 (centres unmarked) [Compound I-8] . Its measured concentration at 5 min is 64 µg/mL

Consider Cc1c(N)nc(SCC2=C(C(=O)[O-])N3C(=O)C(NC(=O)/C(=N\OC(C)(C)C(=O)O)c4csc(N)n4)C3SC2)[n+](C)c1N (centres unmarked) [Compound I-30] . Its measured concentration at 5 min is 80 µg/mL

Consider C[n+]1c(N)cc(N)nc1SCC1=C(C(=O)[O-])N2C(=O)C(NC(=O)/C(=N\OC(C)(C)C(=O)O)c3csc(N)n3)[C@H]2SC1 (some centres unmarked) [Compound I-1] . Its measured concentration at 5 min is 65 µg/mL

Consider CC[n+]1c(N)cc(N)nc1SCC1=C(C(=O)[O-])N2C(=O)C(NC(=O)/C(=N\OC(C)C(=O)O)c3csc(N)n3)C2SC1 (centres unmarked) [Compound I-5] . Its measured concentration at 5 min is 72 µg/mL

Consider CCc1c(N)nc(SCC2=C(C(=O)[O-])N3C(=O)C(NC(=O)/C(=N\OC(C)(C)C(=O)O)c4csc(N)n4)C3SC2)[n+](C)c1N (centres unmarked) [Compound I-31] . Its measured concentration at 5 min is 62 µg/mL
